compounds and their reported logD
experiment: Distribution coefficient (octanol/water determined at pH 7.4); format: physicochemical; conditions: read-out: distribution coefficient (converted)
The response must contain the number and no unit.

[[record]]
compound = "CCN[C@H]1CN(CCCOC)S(=O)(=O)c2sc(S(N)(=O)=O)cc21 [brinzolamide]"
readout = "logD"
meas_value = 0.817


Data request: Could you please provide reported logD for CCN[C@H]1C[C@H](C)S(=O)(=O)c2sc(S(N)(=O)=O)cc21 [dorzolamide] ? Thanks!
Data returned: 0.236

###

test: Distribution coefficient (octanol/water determined at pH 7.4); type: physicochemical
READOUT: logD
Write the value as a bare number.

Data request: Consider the compound CC(=O)/N=c1/sc(S(N)(=O)=O)nn1C [methazolamide] . State its measured logD.
Data returned: -0.194
